- Tested on: HL-60
- ASSAY_PROTOCOL: Inhibition of cell growth was studied in human promyelocytic leukemic (HL-60) cells.
- Format: functional, cell-based
PARAMETER: IC50 (µM)
Give bare numbers, in µM.

Illustrative cases are given below, each with its answer.
{"COMPOUND": "CNC(=O)OCc1cc2c(c3c1C1NC1C3)C(=O)c1ccccc1C2=O (centres undefined)", "UNITS_SYMBOL": "µM", "IC50": 6.03}
{"COMPOUND": "CNC(=O)OCc1cc2c(c3c1CCC3)C(=O)c1ccccc1C2=O", "UNITS_SYMBOL": "µM", "IC50": 274}
{"COMPOUND": "CO[C@@]12[C@H](COC(N)=O)C3=C(C(=O)C(C)=C(N)C3=O)N1C[C@@H]1N[C@@H]12 [MITOMYCIN]", "UNITS_SYMBOL": "µM", "IC50": 0.05}

Next item in the queue.
**Query** IC50 for NC(=O)OCc1cc2c(c3c1CCC3)C(=O)c1ccccc1C2=O ?
**Result** 123

====

I'd be grateful if you could share measured IC50 for these entries.
- Test system: DC3F
- ASSAY_PROTOCOL: Inhibition of cell growth was studied in chinese hamster lung cells (DC-3F)
- Format: functional, cell-based
- RUN_PARAMETERS: Cricetulus griseus
Give bare numbers, in µM.

{"MOLECULE": "CNC(=O)OCc1cc2c(c3c1C1NC1C3)C(=O)c1ccccc1C2=O (configuration not stated)", "UNITS_SYMBOL": "µM", "IC50": 10.4}

Next item in the queue.
**Query** IC50 for CO[C@@]12[C@H](COC(N)=O)C3=C(C(=O)C(C)=C(N)C3=O)N1C[C@@H]1N[C@@H]12 [MITOMYCIN] ?
**Result** 0.082
